System: SK-BR-3 (Her2 amp)
Assay: Growth inhibition GI50 in vitro (CCK8/MTT, 72 h)
Assay type: cell-based, human
Conditions: Homo sapiens, SK-BR-3; HER2 positive cell line; range of GI50; read-out: GI50 SK-BR-3
property_measured: GI50

- C=CC(=O)Nc1cc(Nc2nccc(Nc3ccc(OCc4ccccn4)c(Cl)c3)n2)c(OC)cc1N1CCC(N(C)C)CC1 [Compound 28]: 10 to 100 nM
- C=CC(=O)Nc1cc(Nc2cc(Nc3ccc(F)c(Cl)c3)ncn2)c(OC)cc1N1CCN(C)CC1 [Compound 145]: 10 to 100 nM
- C=CC(=O)Nc1cc(Nc2nccc(-n3ccc4ccc(Cl)cc43)n2)c(OC)cc1N(C)CCN(C)C [Compound 61]: 100 to 1000 nM
- C=CC(=O)Nc1cc(Nc2nccc(-n3ccc4ccc(F)cc43)n2)c(OC)cc1N(C)CCN(C)C [Compound 63]: 100 to 1000 nM
- C=CC(=O)Nc1cc(Nc2ncnc(Nc3ccc(F)c(Cl)c3)n2)c(OC)cc1N(C)CCN(C)C [Compound 109]: 10 to 100 nM
- C=CC(=O)Nc1cc(Nc2nccc(Nc3cccc(Br)c3)n2)c(OC)cc1N(C)CCN(C)C [Compound 1]: 10 to 100 nM
- C=CC(=O)Nc1cc(Nc2nccc(Nc3ccc(F)c(Cl)c3)n2)c(OC)cc1N(C)CCN(C)C [Compound 13]: 10 to 100 nM

###

System: N87 (HER2 Amp)
Test: Growth inhibition GI50 in vitro (CCK8/MTT, 72 h)
Format: cell-based, human
Conditions: Homo sapiens; HER2 positive cell line; range of GI50; read-out: GI50 N87
property_measured: GI50

- C=CC(=O)Nc1cc(Nc2cc(Nc3ccc(F)c(Cl)c3)ncn2)c(OC)cc1N1CCN(C)CC1: < 10 nM
- C=CC(=O)Nc1cc(Nc2cc(Nc3cc(OC)c(Cl)cc3Cl)ncn2)c(OC)cc1N(C)CCN(C)C: 10 to 100 nM
- C=CC(=O)Nc1cc(Nc2nccc(-n3ccc4ccc(OC)cc43)n2)c(OC)cc1N(C)CCN(C)C: 100 to 1000 nM
- C=CC(=O)Nc1cc(Nc2nccc(-n3ccc4cc(OC)ccc43)n2)c(OC)cc1N(C)CCN(C)C: < 10 nM

###

Test system: SK-BR-3 (Her2 amp)
Test: Growth inhibition GI50 in vitro (CCK8/MTT, 72 h)
Assay type: cell-based, human
Settings: Homo sapiens, SK-BR-3; HER2 positive cell line; range of GI50; read-out: GI50 SK-BR-3
Protocol: Human lung adenocarcinoma cell line Calu-3 (ATCC) was cultured with 1×MEM complete medium (10% FBS, 1% double-antibiotics, 1% NEAA (Gibco), 2 mM glutamine and 1 mM of sodium pyruvate). Human breast cancer cell line SK-BR-3 was cultured with McCOY'S5A complete medium (10% FBS). […] The suspension cells were collected by centrifugation. The supernatant was discard and the cell pellet was resuspended and counted. […] Dojindo CCK8 reagent kit was used as MTT assay. […] FC meter was used as microplate reader. […]
Recorded GI50 by entry
property_measured: GI50

* C=CC(=O)Nc1cc(Nc2nccc(-n3ccc4ccc(OC)cc43)n2)c(OC)cc1N(C)CCN(C)C [Compound 58] | 100 to 1000 nM
* C=CC(=O)Nc1cc(Nc2nccc(-n3ccc4c(OC)cccc43)n2)c(OC)cc1N(C)CCN(C)C [Compound 99] | 10 to 100 nM
* C=CC(=O)Nc1cc(Nc2cc(-c3cn(C4CCCC4)c4ccc(F)cc34)ncn2)c(OC)cc1N(C)CCN(C)C [Compound 193] | > 1000 nM
* C=CC(=O)Nc1cc(Nc2cc(-c3cn(C(C)C)c4ccc(F)cc34)ncn2)c(OC)cc1N(C)CCN(C)C [Compound 191] | < 10 nM
* C=CC(=O)Nc1cc(Nc2cc(Nc3ccc(F)c(Cl)c3)ncn2)c(OC)cc1OCCN(C)C [Compound 148] | < 10 nM
* C=CC(=O)Nc1cc(Nc2nccc(N3CCc4ccccc43)n2)c(OC)cc1N(C)CCN(C)C [Compound 31] | 100 to 1000 nM
* C=CC(=O)Nc1cc(Nc2nccc(-n3ccc4ccc(C)cc43)n2)c(OC)cc1N(C)CCN(C)C [Compound 59] | 100 to 1000 nM
